Values compiled from patent US20240409617A1.

- MEASUREMENT_TARGET: D614G Spike (SARS-CoV2)
Label 0.0 if Response falls below 0.2; label 1.0 in every other case.

# BINDER, CAT
measured = [
    ("Ab_21 scFv-Fc (scFv, V domains shown) VH: QVQLVQSGGGLVQPGGSLRLSCATSGFTFDDYAMHWVRQAPGKGLEWVSGISWNSGSIGYVDSVKGRFTISRDNRNNKVYLQMNNLRAEDTAVYYCARDWWGSIDHWGLGTLVTVSS VL: QSALTQPRSVSGSPGQSVTISCTGTSSDVGGYDYVSWYQQHPGKAPKLIIYDVSKRPSGVPDRFSGSKSGNTASLTVSGLQAEDEADYYCSSYTSSSPVVFGGGTKLTVL", 1.0),
    ("S1-RBD-R3-T1-B12 Ab (Ab_31) scFv-Fc (scFv, V domains shown) VH: QVQLVQSGAEVKKPGSSVKVSCKASGGTFSSYTISWVRQAPGQGLEWMGGIIPILGTPNYAQKFQDRVAITADKSTSTAYMELSSLRSEDTAVYYCAVGSGWYSGFDYWGQGTLVTVSS VL: NFMLTQPHSVSESPGKTVTISCTGSSGSIASNYVQWYQQRPGSAPTTVIYEDSQRPSGVPDRFSGSIDSSSNSASLTISGLKTEDEADYYCQSFHNSNPVIFGGGTKLTVL", 0.0),
    ("Ab_23 scFv-Fc (scFv, V domains shown) VH: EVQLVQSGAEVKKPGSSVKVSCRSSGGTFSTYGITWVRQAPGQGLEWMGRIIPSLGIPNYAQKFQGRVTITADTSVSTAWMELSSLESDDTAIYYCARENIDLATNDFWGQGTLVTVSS VL: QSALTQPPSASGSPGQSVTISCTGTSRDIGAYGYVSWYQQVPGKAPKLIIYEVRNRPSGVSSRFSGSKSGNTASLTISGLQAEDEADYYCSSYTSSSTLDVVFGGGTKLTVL", 0.0),
    ("Ab_14 scFv-Fc (scFv, V domains shown) VH: QVQLQQSGPGLVKPSQTLSLTCAISGDSVSSNSAAWNWIRQSPARGLEWLGRTYYRSRWYNDYAISMKSRITINPDTSKNQFSLQLESVTPEDTAVYYCAREIRGFDYWGQGTLVTVSS VL: QSVLTQPPSASGSPGQSVTISCTGTSSDVGAYNFVSWYQHHPGKAPKLIIYDFNKRPSGVPDRFSGSKSGNTASLTVSGLQADDEADYYCSSYAGSNNFDVVFGGGTKLTVL", 1.0),
]
